Provenance of the data: patent US7557133B2

molecular target: caspase-1 (Homo sapiens); construct: p10 and p20 subunits (Thornberry, N. A. et al, Nature, 1992, 356, 768) were expressed in E. coli; made in house; host or cells: E. coli; experiment: Caspase-1 inhibitory effect (fluorescent substrate AcYVAD-AFC); format: biochemical; conditions: pH 7.5; 25° C., 50 μM AcYVAD-AFC, 10 nM caspase-1; read-out: Caspase-1 Kobs/[I] (converted)
Sequence (P29466 120-297 limits assumed): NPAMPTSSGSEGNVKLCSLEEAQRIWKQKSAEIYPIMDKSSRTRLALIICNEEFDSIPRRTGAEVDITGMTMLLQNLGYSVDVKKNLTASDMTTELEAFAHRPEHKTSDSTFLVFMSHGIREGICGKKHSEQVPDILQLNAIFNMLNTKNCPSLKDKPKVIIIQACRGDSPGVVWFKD
Sequence (P29466 317-404 limits assumed): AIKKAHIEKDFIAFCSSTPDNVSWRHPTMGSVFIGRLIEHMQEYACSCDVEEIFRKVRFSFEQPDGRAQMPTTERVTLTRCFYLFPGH
Quantity Kind: kinact/KI (M⁻¹ s⁻¹)

CC(C)[C@@]1(C(=O)NC(CC(=O)O)C(=O)CF)CC(c2nccc3ccccc23)=NO1 (stereo partly drawn); 18300

I: CCC1(C(=O)N[C@@H](CC(=O)O)C(=O)COc2c(F)c(F)cc(F)c2F)CC(c2cccc3ccccc23)=NO1 (stereo partly drawn)
II: CCC1(C(=O)N[C@@H](CC(=O)O)C(=O)COc2c(F)c(F)cc(F)c2F)CC(COc2cccc3ccccc23)=NO1 (stereo partly drawn)
[Q] Field: lower recorded kinact/KI (choose I or II ) Answer = label.
[A] I
(I: 5170 M⁻¹ s⁻¹, II: 38300 M⁻¹ s⁻¹)

a: CCC1(C(=O)N[C@@H](CC(=O)O)C(=O)COc2c(F)c(F)cc(F)c2F)CC(COc2ccc(Cl)c3ccccc23)=NO1 (stereo partly drawn)
b: CCC1(C(=O)N[C@@H](CC(=O)O)C(=O)COc2c(F)c(F)cc(F)c2F)CC(c2ccccc2)=NO1 (stereo partly drawn)
[Q] Out of a and b , name the one with the higher kinact/KI. Answer = label.
[A] a
(a: 55000 M⁻¹ s⁻¹, b: 3170 M⁻¹ s⁻¹)
